Molecular target: T1, human IL-6 (human, UniProt P05231 30-212)
T1 construct: Used where the text says only IL-6 or human IL-6 (crystals: rh IL-6 from Immunotools; cell assays) and for values averaged over the bacterial and eukaryotic IL-6 channels; also called interleukin-6; rh IL-6
Test: SPR; periplasmic fraction; average of the IL-6 channels
Set-up: unit not given here
Item-by-item account of average binding
Lab note: record the figure alone, no unit after it.

# count of solved cases: 3
binder	measured
Fab 24A3 (Fab, V domains shown, Fab; also called 28f10(24A3)) VH: QVQVQESGGGLVQPGGSLRLSCAASGFTFSNYAMSWVRQAPGKGLEWVSGISFRGGMISYVDSVKGRFTISRDNAKNTLYLQMNSLKPEDTAVYYCAKNSGSSRSNALDAWGQGTLVTVSS VL: LNFMLTQPPSVSGSPGQKFTIRCTGSFRSDSYVNWYQQLPGTAPKLLINYDDRRVSGVPSRFSGSKSGNSASLTIDGLQAEDEAEYYCSFWDHTFGGHVFGGGTKLTVLG	286
Fab 24D10 (Fab, V domains shown, Fab; also called pur24d10; 28f12(24D10)) VH: QLQVVESGGGLVQPGGSLRLSCAASGFTFSSYAMSWVRQAPGKGPEWVSRISSGGGSTSYADSVKGRFTISRDNAKNTLYLQMNSLKPEDTAVYYCANRAGWGMGDYWGQGTQVTVSS VL: QTVVTQEPSLSVSPGGTVTLTCGLSSGSVTASNYPGWFQQTPGQAPRALIYSTNDRHSGVPSRFSGSISGNKAALTITGAQPEDEADYYCALDIGDITEFGGGTHLTVLG	167
Fab 28B6 (Fab, V domains shown, Fab; also called 28f3(28B6)) VH: QVQLVESGGGLVQPGGSLRLSCAASGFTFSNYYMTWVRQAPGKGLEWVSSIYSFSGDTAYADSVKGRFTISRDNAKNTLYLQMNSLKSEDTAVYYCTRNLGGVVVTTNGYDYWGQGTQVTVSS VL: DIQLTQSPSSLSASLGDRVTITCQASQSISTELSWYQQKPGQTPKLLIYGASRLQTGVPARFSGSGSGTSFTLTISGLEAEDLATYYCLQDYSWPYSFGSGTRL	43

Field: next binder
Recorded result, Fab 24G3 (Fab, V domains shown, Fab; also called 28g12(24G3)) VH: QLQVVESGGGLVQPGSSLRLSCGASGFTFSSHRMYWVRQPPGKGLEWVSAISSSGVSTYYADSVKGRFTISRDNAKNTVYLQMNSLKPEDTALYYCKRRTWYGGEYDYWGQGTQVTVSS VL: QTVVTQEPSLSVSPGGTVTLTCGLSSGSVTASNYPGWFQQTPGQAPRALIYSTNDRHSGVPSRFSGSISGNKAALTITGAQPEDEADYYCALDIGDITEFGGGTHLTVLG , average binding: 46
